System: A549 NSCLC
assay-comment: NCI tumour cell line growth inhibition, 48 h
Task for the reader: assign each of the following compounds its reported TGI.

Recorded TGI (compound CC(C)(C)[Si](C)(C)OCC1OC(n2cc(F)c(=O)[nH]c2=O)CC1O[Si](C)(C)C(C)(C)C (stereo not drawn) ): 25.6 µM

Recorded TGI (compound O=C(Nc1ccc(Cl)c(Cl)c1)C(=O)Nn1c(=S)[nH]c2ccccc2c1=O ): > 100 µM

Recorded TGI (compound O=C(CSc1nc2ccc([N+](=O)[O-])cc2[nH]1)Nc1cccc(Cl)c1 ): 15.9 µM

Recorded TGI (compound O=S(=O)(O)c1ccc(Cl)cc1.[Cd] ): > 100 µM

Recorded TGI (compound CC(=O)Nc1ccc2c3c(cc(O)c2c1)N(C(=O)CCCC(=O)Nc1ccc2c4c(cc(O)c2c1)N(C(=O)OC(C)(C)C)CC4CCl)CC3CCl (stereo not drawn) ): > 50 µM

Recorded TGI (compound CCCCC(NC(=O)CC)C(=O)O (stereo not drawn) ): > 100 µM

Recorded TGI (compound CNc1nnnn1C1OC(CO)C(O)C1O (stereo not drawn) ): > 100 µM

Recorded TGI (compound O=C(O)CN1CCNCCN(CC(=O)O)CCNCC1 ): > 100 µM

Recorded TGI (compound [N-]=[N+]=Nc1ccccc1-[n+]1noc([O-])c1Br ): > 100 µM

Recorded TGI (compound O=C(CC(=O)N(C(=O)c1ccccc1)c1ccc(Cl)cc1)N/N=C\c1ccccc1O ): > 100 µM

Recorded TGI (compound CC1=NN(c2nc(N)nc(C(C)Sc3cc(Cl)c(C)cc3S(N)(=O)=O)n2)C(C)(C)C1 (stereo not drawn) ): > 10 µM

Recorded TGI (compound Cc1cc(C)nc(NS(=O)(=O)c2ccc(NC(=O)c3cccc4c(Nc5ccc(S(=O)(=O)Nc6nc(C)cc(C)n6)cc5)c5ccccc5nc34)cc2)n1 ): 68.2 µM

Recorded TGI (compound COc1ccc2nc3cc(Cl)ccc3c(NCCC(=O)OCC(O)C(O)C(O[C@H](C)C(=O)NC(C)C(=O)NC(CCC(N)=O)C(=O)OCc3ccccc3)C(C=O)NC(C)=O)c2c1 (stereo partly drawn) ): 32.4 µM

Recorded TGI (compound C/C(=N\Nc1nc2ccccc2[nH]1)c1ccncn1 ): > 100 µM

Recorded TGI (compound CCOCCc1c(O)nc(SC)[nH]c1=O ): > 100 µM

Recorded TGI (compound O=C(CC1(O)C(=O)Nc2c(Cl)cccc21)c1ccccc1 (stereo not drawn) ): > 100 µM

Recorded TGI (compound Cc1cc(Cl)ccc1NC(=O)/C(Cl)=C(/Cl)C(=O)O ): > 100 µM

Recorded TGI (compound O=c1c2cc(Br)ccc2[nH]c(=S)n1-c1ccc(Br)cc1 ): > 100 µM

Recorded TGI (compound CC(C)=CCC[C@](C)(O)[C@H]1CC[C@]2(C)[C@@H]1[C@H](O)C[C@@H]1[C@@]3(C)CC[C@H](O[C@@H]4O[C@H](CO)[C@@H](O)[C@H](O)[C@H]4O)C(C)(C)[C@@H]3CC[C@]12C ): 37.7 µM

Recorded TGI (compound O=C1NCC2(CCN(Cc3ccccc3)CC2)N1 ): > 100 µM

Recorded TGI (compound C(=N/Nc1ncnc2nc[nH]c12)/c1ccccn1 ): > 100 µM

Recorded TGI (compound CC(=O)c1ccc(N2CCN(c3c(O)c4c(c(O)c3Cl)C(=O)C=CC4=O)CC2)cc1 ): 34.8 µM

Recorded TGI (compound CSC(=NC1CC(n2cc(C)c(=O)[nH]c2=O)OC1CO)NC#N (stereo not drawn) ): > 100 µM

----------
Tested on: HL-60(TB) leukemia
assay-comment: NCI tumour cell line growth inhibition, 48 h
test-readout: GI50

Recorded GI50 (compound COc1ccc(-c2cn(-c3ccc(Cl)cc3)c(=S)[nH]2)cc1OC ): 3340 nM

Recorded GI50 (compound COc1ccc(Nc2c3c4c(cccc4[nH]c2=O)C(=O)c2ccccc2-3)cc1 ): 18.8 nM

Recorded GI50 (compound Nc1ncnc2c1c(-c1cccc(OCc3ccccc3)c1)cn2C1CC(CN2CCCC2)C1 (centres undefined) ): 426 nM

Recorded GI50 (compound O=C1Nc2ccccc2C1(c1ccc(O)c(F)c1)c1ccc(O)c(F)c1 ): 15000 nM

----------
Task for the reader: assign each of the following compounds its reported TGI.
System: EKVX NSCLC
assay-comment: NCI tumour cell line growth inhibition, 48 h
Hi! Could you send only the number? It should be in µM, unit omitted.

Recorded TGI (compound Cn1c(=O)nc2n(-c3ccc(F)cc3)c3ccccc3nc-2c1=O ): 32

Recorded TGI (compound COc1ccc(-c2nc(N(C)C)c3ccccc3n2)cc1 ): 22.3

----------
System: M14 melanoma
assay-comment: NCI tumour cell line growth inhibition, 48 h
test-readout: TGI

For the compound O=C1OC(c2ccccc2)C2CC3CC4(CCC3CN12)OCCO4 (stereo unspecified) , the measured TGI on M14 melanoma was > 100 µM

For the compound O=C1NC2OCC(O)C(O1)C2O (stereo unspecified) , the measured TGI on M14 melanoma was > 100 µM

For the compound O=C(O)CN(CC(=O)O)Cc1cc2c(cc1O)Oc1cc(O)c(CN(CC(=O)O)CC(=O)O)cc1C21OC(=O)c2ccccc21 , the measured TGI on M14 melanoma was > 100 µM

For the compound COc1ccc(-c2nc(N)c(C#N)c3c2CCSc2ccc(C)cc2-3)cc1OC , the measured TGI on M14 melanoma was > 100 µM

For the compound CCOC(=O)N1CC2(C(=O)OC)C=CC1C(C(=O)OC)C2 (stereo unspecified) , the measured TGI on M14 melanoma was > 100 µM

For the compound COc1ccc(N2C(=O)CSC2c2cc3cc(Br)ccc3nc2Cl)cc1 (stereo unspecified) , the measured TGI on M14 melanoma was > 50 µM

----------
Tested on: MOLT-4 leukemia
assay-comment: NCI tumour cell line growth inhibition, 48 h
Task for the reader: assign each of the following molecules its reported TGI.

Recorded TGI (molecule CC1=NN(c2nc(N)nc(C(C)Sc3cc(Cl)c(C)cc3S(N)(=O)=O)n2)C(C)(C)C1 (stereo unspecified) ): > 10 µM

Recorded TGI (molecule O=C1Nc2cc(Cl)ccc2Oc2cc(Oc3ccccc3)ccc21 ): > 100 µM

Recorded TGI (molecule COc1ccc(N2C(=O)CSC2c2cc3cc(Br)ccc3nc2Cl)cc1 (stereo unspecified) ): > 50 µM

Recorded TGI (molecule O=C(Nc1ccc(Cl)c(Cl)c1)C(=O)C(C1OC(=O)c2ccccc21)[N+](=O)[O-] (stereo unspecified) ): > 100 µM

Recorded TGI (molecule O=C(O)CNC(=O)c1ccccc1O ): > 100 µM

Recorded TGI (molecule Cc1cc2c(cc1C)N1Cc3c(ccc(C)c3C)N(C2)C1 (tested in a mixture with another compound) ): > 100 µM

----------
Task for the reader: assign each of the following molecules its reported TGI.
System: MALME-3M melanoma
assay-comment: NCI tumour cell line growth inhibition, 48 h

For the molecule O=C(O)CNC(=O)c1ccccc1O , the measured TGI on MALME-3M melanoma was > 100 µM

For the molecule O=C(Nc1ncc(Cc2ccccc2)s1)c1ccc2c(c1)OCCO2 , the measured TGI on MALME-3M melanoma was > 100 µM

For the molecule COc1ccc(N2C(=O)C3c4[nH]c5ccccc5c4C4CCCCCCCC4C3C2=O)cc1 (centres undefined) , the measured TGI on MALME-3M melanoma was > 10 µM

For the molecule CC(C)c1ccc2c(N=Nc3ccc(S(N)(=O)=O)cc3)c(O)[nH]c2c1 , the measured TGI on MALME-3M melanoma was > 25 µM

----------
Task for the reader: assign each of the following molecules its reported TGI.
Tested on: COLO 205 colon
assay-comment: NCI tumour cell line growth inhibition, 48 h

Recorded TGI (molecule COc1ccc(CN2C(=O)C(Cc3cc(OC)c(OC)c(C)c3OC)N(C(=O)OC(C)C)C(=O)/C2=C/c2cc(OC)c(OC)c(C)c2OC)cc1 (stereo unspecified) ): > 100 µM

Recorded TGI (molecule COc1nc(/C=N/NC(N)=S)nc(OC)n1 ): > 100 µM

Recorded TGI (molecule CC1CC(=O)N2CCCNC2=C1C#N (stereo unspecified) ): > 100 µM

Recorded TGI (molecule CC(=O)OCc1cccc(O)c1C(=O)CCC=C(C)C ): > 100 µM

Recorded TGI (molecule O=C(O)Cn1nnc2c(=O)[nH][nH]c(=O)c21 ): > 100 µM

Recorded TGI (molecule CC1(C)CC[C@]2(C(=O)n3ccnc3)CC[C@]3(C)[C@H](C(=O)C=C4[C@@]5(C)C=C(C#N)C(=O)C(C)(C)[C@@H]5CC[C@]43C)[C@@H]2C1 ): > 100 µM

Recorded TGI (molecule C[As](C)Sc1ccnc(S[As](C)C)n1 ): > 39.3 µM

Recorded TGI (molecule COC1OCC(OS(=O)(=O)c2ccc(C)cc2)C(OC(=O)c2ccccc2)C1OC(=O)c1ccccc1 (stereo unspecified) ): > 100 µM

Recorded TGI (molecule [N-]=[N+]=Nc1ccccc1-[n+]1noc([O-])c1Br ): > 100 µM

Recorded TGI (molecule CC(C)c1ccc2c(N=Nc3ccc(S(N)(=O)=O)cc3)c(O)[nH]c2c1 ): > 25 µM

Recorded TGI (molecule O=C(c1ccccn1)c1nnn2ccccc12 ): > 100 µM
